Test system: Candida albicans
PROTOCOL DETAILS: in vivo protection of mice inoculated with Candida albicans (PD50)
TEST CONTEXT: vs. Candida albicans in mice; dose giving 50% protection against lethal effect of the infection, 48 hours observation; route not given; 2880 min
Criterion: PD50 strictly under 0.3 mg/kg. Met: Satisfied. Not met: Not satisfied.

[[record]]
molecule = "OC(c1ccc(Cl)cc1)(c1ccc(F)cc1F)C(F)n1cncn1 (single isomer, unassigned) [Example 7 (diastereomer I)]"
assigned_category = "Not satisfied"

[[record]]
molecule = "OC(c1ccc(F)cc1)(c1ccc(F)cc1)C(F)n1cncn1 (single isomer, unassigned) [Example 12(+)]"
assigned_category = "Not satisfied"

[[record]]
molecule = "OC(c1ccc(F)cc1)(c1ccc(Cl)cc1Cl)C(F)n1cncn1 (single isomer, unassigned) [Example 9 (diastereomer II)]"
assigned_category = "Not satisfied"

[[record]]
molecule = "OC(c1ccc(F)cc1)(c1ccc(F)cc1)C(F)n1cncn1 (single isomer, unassigned) [Example 12(-)]"
assigned_category = "Satisfied"

